# Tested on: OVCAR-5 ovarian
# Assay explanation: NCI tumour cell line growth inhibition, 48 h
Quantity: TGI

Name the reported TGI value associated with the compound Cc1c2cc[n+](C)cc2c(COC2OC(CO)C(O)C2O)c2c3ccccc3n(C)c12 (stereo unspecified) > 100 µM

Which TGI is listed for O=c1c(-c2ccccc2)c[nH]c2cc([N+](=O)[O-])c(/C(Cl)=C/c3ccccc3)cc12 ? > 59.5 µM

Can you look up the measured TGI of COC(=O)CCCc1ccc2c(c1)CCC2 for me? > 100 µM

Need TGI of C[n+]1c2ccccc2c(NC2CCNCC2)c2[nH]c3ccccc3c21 , thanks. 17.6 µM

Please report the recorded TGI for CC1(C(O)c2ccccc2)CN(C(C)(C)C)C(=O)/C1=C\Sc1ccccc1 (stereo unspecified) . > 100 µM

Bench note: what TGI did Brc1ccc(-c2ccc(-c3ccc(Br)s3)s2)s1 show? > 100 µM
